Tested on: EKVX NSCLC
Assay: NCI-60 one-dose screen, 48 h
Conditions: 10 µM unless noted
Compounds without any hit were thinned out: in the full panel of roughly 83,000, 20% have a hit. Active and inactive are the calls of the source. The calls were made as follows: active = growth percent below 10; inactive = the rest.
Give your call using only these classes: Yes for active, No for inactive

Worked examples follow.
{"molecule": "COc1cc(NCCCN=C(N)N)c2ncccc2c1", "target": "EKVX NSCLC", "group_label": "No"}
{"molecule": "COC(=O)C12CC(NC(=O)c3csc([C@@H](C[C@H](C(C)C)N(C)C(=O)[C@@H](NC(=O)[C@H]4CCCCN4C)C(C)C)OC(C)=O)n3)(C1)C2", "target": "EKVX NSCLC", "group_label": "No"}
{"molecule": "CC1=C(O)[C@@](C)(CCCCC[C@H](C)CCCCc2ccc(O)cc2)OOC1=O", "target": "EKVX NSCLC", "group_label": "No"}
{"molecule": "O=C1NC(=O)C(=Cc2cccn2CCCCCn2c3ccccc3c(=O)c3ccccc32)C(=O)N1", "target": "EKVX NSCLC", "group_label": "No"}
{"molecule": "COc1ccc([As]=[As]c2ccc(OC)c(NCS(=O)(=O)O)c2)cc1NCS(=O)(=O)O (stereo unspecified)", "target": "EKVX NSCLC", "group_label": "Yes"}
{"molecule": "Cc1c(C)c([N+](=O)[O-])c(C)c(C)c1[N+](=O)[O-]", "target": "EKVX NSCLC", "group_label": "No"}
{"molecule": "O=C(O)c1c(Cl)n(Cc2ccc(O)cc2)c2ccc(O)cc12", "target": "EKVX NSCLC", "group_label": "No"}
{"molecule": "Fc1ccc(N2COOC3(OOC2)C2CC4CC(C2)CC3C4)cc1", "target": "EKVX NSCLC", "group_label": "No"}

For O=C1CC2(CC3(Cl)C(Cl)=C(Cl)C2(Cl)C3(Cl)Cl)C(=O)O1 (stereo unspecified) , what call appears in the results of this test? No

Would you mind telling me which call this test gave CC1=C2[C@@H](CC1)[C@]1(C)O[C@@](C(C)C)(C[C@H]1O)[C@H]2OC(=O)C1CC1c1ccccc1 (stereo partly specified) ? No

Could you kindly confirm the outcome this assay logged for COC(C(=O)[C@@H](O)[C@@H](C)O)[C@@H]1Cc2cc3cc(O[C@H]4C[C@@H](O[C@H]5C[C@@H](O)[C@H](O)C(C)O5)[C@H](O)C(C)O4)c(C)c(O)c3c(O)c2C(=O)[C@H]1O[C@H]1C[C@@H](O[C@H]2C[C@@H](O[C@H]3C[C@@H](O)[C@@H](O)C(C)O3)[C@@H](O)C(C)O2)[C@H](O)C(C)O1 (stereo partly specified) ? No

Outcome logged for CC(=O)OC1C(OC/C2=C/C3[C@@H](C(C)C)CC=C(C)[C@@H]3CC(OC(=O)/C=C/c3cn(C)cn3)[C@]3(C)C=C[C@@]2(O)O3)OCC(O)C1O (stereo partly specified) in this assay: No

Could you please tell me the result logged for `Clc1cccc(NCOOC2(OOCNc3cccc(Cl)c3)CCCCCC2)c1` in this assay? No

Query: recorded result category for `O[C@H](CN1CC1)[C@@H](O)CN1CC1` in this test No

How was CC(C)(C)C(=O)OCOP(=O)(OCOC(=O)C(C)(C)C)C1CCCN(O)C1=O (stereo unspecified) classified in this test? No

Entry `COC(=O)[C@@H](C)C[C@H](Cc1ccc(F)cc1)NC(=O)c1csc([C@@H](C[C@H](C(C)C)N(C)C(=O)[C@@H](NC(=O)[C@H]2CCCCN2C)C2CC2)OC(C)=O)n1` : call = ? No
